B1: F1*; the commonest letter at each place (parent)
chain: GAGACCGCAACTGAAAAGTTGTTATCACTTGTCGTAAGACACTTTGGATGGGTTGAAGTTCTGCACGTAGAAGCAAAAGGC

- Variants of: B1
- assayMethodText: fraction ligated after 30 min (ligated reads / total reads); higher = more ligase activity
- conditionsUsed: with F1*sub RNA substrate (template-directed ligation), 42 °C
measuredAttribute: fraction ligated
Response field accepts a number only; no unit should be typed.

Example cases with answers are listed next.
{"columns": ["sequenceText", "fraction ligated"],
 "data": [
  ["GAGACCGCAACTGAAAAGTTGTTCTAACTTGTCGTAAGACACTTTGGATGGGTTGAAGTTCTGCACGTAGAAGCAAAAGGC [A24C C26A]", 0.417],
  ["GAGACCGCAACTGAAAAGTTGTTATCGCTTGTCATAAGACACTTTGGATGGGTTGAAGTTCTGCACGTAGAAGCAAAAGGC [A27G G34A]", 0.831],
  ["GAGACCGCAACTGAAAAGTTGTTATCACTTGACCTAAGACACTTTGGATGGGTTGAAGTTCTGCACGTAGAAGCAAAAGGC [T32A G34C]", 0.809]
]}

Dear colleague, I am looking for the recorded fraction ligated of the following variant: GAGACCGCAACTGAAAAGTTGTTATCACTGGTCGTAAAACACTTTGGATGGGTTGAAGTTCTGCACGTAGAAGCAAAAGGC [T30G G38A]
0.843

Dear colleague, I am looking for the recorded fraction ligated of the following variant: GAGACCGCAACTGAAAAGTTGTTATGACTTGGCGTAAGACACTTTGGATGGGTTGAAGTTCTGCACGTAGAAGCAAAAGGC [C26G T32G]
0.125

Dear colleague, I am looking for the recorded fraction ligated of the following variant: GAGACCGCAACTGAAAAGTTGTTATCACCTGTCGTAAGACACTTTGGTTGGGTTGAAGTTCTGCACGTAGAAGCAAAAGGC [T29C A48T]
0.592

Dear colleague, I am looking for the recorded fraction ligated of the following variant: GAGACCGCAACTGAAAAGTTGTTATGACTTGTCGTAAGACACTTTGGACGGGTTGAAGTTCTGCACGTAGAAGCAAAAGGC [C26G T49C]
0.0764

Dear colleague, I am looking for the recorded fraction ligated of the following variant: GAGACCGCAACTGAAAAGTTGTTATCACTTGTCGTAAGACACTTTGGTTGGGTTAAAGTTCTGCACGTAGAAGCAAAAGGC [A48T G55A]
0.515

Dear colleague, I am looking for the recorded fraction ligated of the following variant: GAGACCGCAACTGAAAAGTTGTTATCACTGGTCGTAAGAAACTTTGGATGGGTTGAAGTTCTGCACGTAGAAGCAAAAGGC [T30G C40A]
0.854

Dear colleague, I am looking for the recorded fraction ligated of the following variant: GAGACCGCAACTGAAAAGTTGTTATCACCTTTCGTAAGACACTTTGGATGGGTTGAAGTTCTGCACGTAGAAGCAAAAGGC [T29C G31T]
0.755

Dear colleague, I am looking for the recorded fraction ligated of the following variant: GAGACCGCAACTGAAAAGTTGTAATCACTTGTCGTAAGACACTTTGGACGGGTTGAAGTTCTGCACGTAGAAGCAAAAGGC [T23A T49C]
0.731

Dear colleague, I am looking for the recorded fraction ligated of the following variant: GAGACCGCAACTGAAAAGTTGTTATCACTTGTCGTTAGACACCTTGGATGGGTTGAAGTTCTGCACGTAGAAGCAAAAGGC [A36T T43C]
0.814

Dear colleague, I am looking for the recorded fraction ligated of the following variant: GAGACCGCAACTGAAAAGTTGTTATCAATTGTCGTAAGACACTTTGGATGGGTTAAAGTTCTGCACGTAGAAGCAAAAGGC [C28A G55A]
0.793

Dear colleague, I am looking for the recorded fraction ligated of the following variant: GAGACCGCAACTGAAAAGTTGTTATCACTTCTCGTAAGGCACTTTGGATGGGTTGAAGTTCTGCACGTAGAAGCAAAAGGC [G31C A39G]
0.777

Dear colleague, I am looking for the recorded fraction ligated of the following variant: GAGACCGCAACTGAAAAGTTGTTATCACTTGTGCTAAGACACTTTGGATGGGTTGAAGTTCTGCACGTAGAAGCAAAAGGC [C33G G34C]
0.843

Dear colleague, I am looking for the recorded fraction ligated of the following variant: GAGACCGCAACTGAAAAGTTGTCATCACTCGTCGTAAGACACTTTGGATGGGTTGAAGTTCTGCACGTAGAAGCAAAAGGC [T23C T30C]
0.789

Dear colleague, I am looking for the recorded fraction ligated of the following variant: GAGACCGCAACTGAAAAGTTGTTATCACTTGTCGTAAGACACTATGGATGGGTTGACGTTCTGCACGTAGAAGCAAAAGGC [T44A A57C]
0.796

Dear colleague, I am looking for the recorded fraction ligated of the following variant: GAGACCGCAACTGAAAAGTTGTTATCACTTGTCGTAAGACACTTTGGACAGGTTGAAGTTCTGCACGTAGAAGCAAAAGGC [T49C G50A]
0.216

Dear colleague, I am looking for the recorded fraction ligated of the following variant: GAGACCGCAACTGAAAAGTTGTTATCACTTGTCGTAAGAGACTTTGGATGGGTTGAGGTTCTGCACGTAGAAGCAAAAGGC [C40G A57G]
0.8

Dear colleague, I am looking for the recorded fraction ligated of the following variant: GAGACCGCAACTGAAAAGTTGTTATTCCTTGTCGTAAGACACTTTGGATGGGTTGAAGTTCTGCACGTAGAAGCAAAAGGC [C26T A27C]
0.811

Dear colleague, I am looking for the recorded fraction ligated of the following variant: GAGACCGCAACTGAAAAGTTGTTATCACCTGTCGTAAGATACTTTGGATGGGTTGAAGTTCTGCACGTAGAAGCAAAAGGC [T29C C40T]
0.818

Dear colleague, I am looking for the recorded fraction ligated of the following variant: GAGACCGCAACTGAAAAGTTGTTATCACTTGTCGTACGACACTTTGGATCGGTTGAAGTTCTGCACGTAGAAGCAAAAGGC [A37C G50C]
0.439

Data provenance: the supplement of paper PMC6755084
